- experimentDescription: recombinant UMI read abundance after kanamycin selection (control-corrected) (log10(CPM+1)); higher = more efficient recombination; extreme values may be limits of the assay; sequences stand for … in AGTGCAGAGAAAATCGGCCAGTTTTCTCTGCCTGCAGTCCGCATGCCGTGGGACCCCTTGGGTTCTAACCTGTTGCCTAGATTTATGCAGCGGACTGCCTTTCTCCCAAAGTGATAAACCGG…AGGTTGGTTTCACT; site = the 11-nt donor;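 also: IS621 bridge recombinase in Escherichia coli cells against a fixed T5 target plasmid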
For each entry below, report its recombinant UMI read abundance (log10) value.
Give the figure by itself; no unit, no explanation.

The value of recombinant UMI read abundance (log10) measured for the sequence GGTCCAACATGGACCGGTTTTCCCGGTAATCCGTATTTGTC (site GGTCCAACTCA) turned out to be 0.00327

The value of recombinant UMI read abundance (log10) measured for the sequence GTTGTCCCATGGACCGGTTTTCCCGGTAATCCGTATTTGGT (site GTTGTACCTAC) turned out to be 0.00965

The value of recombinant UMI read abundance (log10) measured for the sequence CGGTCATCATGGACCGGTTTTCCCGGTAATCCGTATTTGCT (site CGGCCATCTAG) turned out to be 2.29

The value of recombinant UMI read abundance (log10) measured for the sequence CTCCAAGCATGGACCGGTTTTCCCGGTAATCCGTATTTGAG (site CTCCAAGCTCT) turned out to be 0.456

The value of recombinant UMI read abundance (log10) measured for the sequence ATGTATGCATGGACCGGTTTTCCCGGTAATCCGTATTTGGC (site ATGTAGGCTGC) turned out to be 0.86
